Listing: GI50 of selected molecules
Test system: SW-620
EXPERIMENT SUMMARY: NCI tumour cell line growth inhibition, 48 h
The source made the active and inactive calls. Cut-off read from the data, not from the text of the source: active = GI50 up to about 1.1 µM and inactive = higher.

{"columns": ["MOLECULE", "GI50"],
 "data": [
  ["COc1ccc2c(c1)-c1c(c3cc(OC)ccc3n1CCCN(C)C)CC2", "11.1 µM (inactive)"],
  ["C=CC(=O)Nc1ccccc1CC(c1c[nH]c2ccccc12)c1c[nH]c2ccccc12", "20.2 µM (inactive)"],
  ["O=C1Nc2ccccc2/C1=N/NC(=O)C(O)(c1ccccc1)c1ccccc1", "17.1 µM (inactive)"],
  ["COC(=O)C1=C(C)NC(=O)N2[C@@H](CCOCc3ccccc3)CC[C@@H]12", "> 50 µM (inactive)"],
  ["CCP(=O)(CC)C(Cl)(Cl)C(=O)NC", "> 100 µM (inactive)"],
  ["O=C(C=P(c1ccccc1)(c1ccccc1)c1ccccc1)c1ccc(-c2cccc([N+](=O)[O-])c2)cc1", "3.91 µM (inactive)"],
  ["OC12c3ccccc3C1CCCCC2N1CCCC1 (stereo not given)", "> 100 µM (inactive)"],
  ["O=C1C2CCCCC2C(=O)N1n1c(-c2ccccc2)n[nH]c1=O (stereo not given)", "> 100 µM (inactive)"],
  ["N#CCCN(CCC#N)c1ccc(C(=N/c2ccc(F)cc2)/N=N/c2ccccc2)cc1", "> 100 µM (inactive)"],
  ["CN1CCN(CCNc2ccc(CO)c3sc4ccccc4c(=O)c23)CC1", "4.18 µM (inactive)"]
]}

* * *

Parameter GI50: see the listing below.
Test system: SK-MEL-5
EXPERIMENT SUMMARY: NCI tumour cell line growth inhibition, 48 h
Calls of active or inactive are those of the source. No stated cut-off is given here; in the data, active = GI50 up to about 1.1 µM and inactive = higher.

{"columns": ["COMPOUND", "GI50"],
 "data": [
  ["C=CCC1=C(C)C[C@@H]2CCC(=O)C=C12", "> 100 µM (inactive)"],
  ["CC(C)(C)OC(=O)NC(Cc1ccc(OCc2ccccc2)cn1)C(=O)O (stereo not given)", "> 100 µM (inactive)"],
  ["CC(C)C(NC(=O)C(Cc1ccccc1)NC(=O)[C@H]1CCC[C@H]1NC(=O)C(Cc1ccc(OC(C)(C)C)cc1)NC(=O)OC(C)(C)C)C(N)=O (stereo not given in full)", "9.95 µM (inactive)"],
  ["Cc1c2ccccc2nc2[nH]c3ccncc3c12", "29.4 µM (inactive)"],
  ["O=C(O)CC(Cc1ccc2c(c1)OCO2)C(=O)O (stereo not given)", "> 100 µM (inactive)"],
  ["CC(=O)OC1C2CCC1C1C2C2(Cl)C(Cl)=C(Cl)C1(Cl)C2(Cl)Cl (stereo not given)", "13 µM (inactive)"],
  ["COC(=O)c1cc(CNCCc2c[nH]c3ccccc23)on1", "> 100 µM (inactive)"],
  ["c1ccc2c(Nc3ncco3)cccc2c1", "> 10 µM (inactive)"],
  ["O=c1n(Cc2ccccc2)c(=O)n2c(=O)n(Cc3ccccc3)c(=O)n12", "> 100 µM (inactive)"],
  ["N=C(N)NS(=O)(=O)c1ccc(NC(=O)c2ccc3nc4ccccc4c(N)c3c2)cc1", "> 100 µM (inactive)"]
]}

* * *

System: ACHN
EXPERIMENT SUMMARY: NCI tumour cell line growth inhibition, 48 h
Calls of active or inactive are those of the source. Rule as the data show it: active = GI50 up to about 1.1 µM and inactive = higher.
Possible outcomes: yes for active, no for inactive

{"columns": ["MOLECULE", "LABEL VALUE"],
 "data": [
  ["O=C1C2CCCCC2C(=O)N1n1c(-c2ccccc2)n[nH]c1=O (configuration not stated)", "no"],
  ["COc1ccc(CNC(C)C(=O)O)cc1 (configuration not stated)", "no"],
  ["Oc1ccc[n+](Cc2ccccc2)c1", "no"],
  ["CCN(CC)CCN(C)c1ccc(CO)c2c1c(=O)c1ccccc1[s+]2[O-] (configuration not stated)", "no"],
  ["O=C(O)CCC(=O)N1c2ccccc2CC1c1c[nH]c2ccccc12 (configuration not stated)", "no"],
  ["CC1NOC(=O)C1/N=N/c1ccc(Cl)cc1Cl (configuration not stated)", "no"],
  ["CC(=O)OC1C(COC(N)=O)OC(n2c(-c3ccc(C)cc3)cc(-c3ccccc3)c(C#N)c2=O)C(OC(C)=O)C1OC(C)=O (configuration not stated)", "no"],
  ["O=C(O)COc1cc(-c2ccccc2)nc2cc(F)ccc12", "no"],
  ["Brc1ccc(-c2cn3ccncc3n2)cc1", "no"],
  ["O=C(Cc1ccccc1)N/N=C(/c1nc2ccc([N+](=O)[O-])cc2nc1O)C(O)c1ccco1 (configuration not stated)", "no"],
  ["CN(C)CCCNC(=O)c1cccc2nc3ccccc3nc12", "no"],
  ["CC(=O)O[C@H]1CC[C@@]2(C)C(=C[C@H](c3ccc(O)cc3)[C@H]3[C@@H]4CC[C@H](OC(C)=O)[C@@]4(C)CC[C@@H]32)C1", "no"],
  ["CCCCCCCCCCCCCCCCCCNc1nc(=O)n(C2CC(O)C(COP(=O)(O)O)O2)cc1F (configuration not stated)", "no"],
  ["Cn1cc(S(=O)(=O)NC(=O)Nc2ccc(Cl)cc2)c(=O)c2ccc(Cl)cc21", "no"],
  ["C[N+]1(CCCl)CC[N+](C)(CCCl)CC1 (configuration not stated)", "no"],
  ["Cc1c2ccccc2c(C)n2c1nc1ccccc12", "no"],
  ["OCC(O)C(O)C(O)c1nn(-c2ccccc2)c2nc3cc(Cl)c(Cl)cc3nc12 (configuration not stated)", "no"],
  ["OC12c3ccccc3C1CCCCC2N1CCCC1 (configuration not stated)", "no"],
  ["c1cncc(C(Nc2cccc3cccnc23)Nc2cccc3cccnc23)c1", "no"],
  ["COCC(=O)OC1CCn2c1nc1c2C(=O)C(C)=C(NC(C)=O)C1=O (configuration not stated)", "no"],
  ["COc1cc(/C=C/C(=N\\NC(N)=S)c2sc(NNC(C)=O)nc2C)ccc1O", "no"],
  ["CC(C)C(OC(=O)c1cc(NC(=S)c2ccccc2)ccc1Cl)C(C)C", "no"],
  ["COc1ccc(Oc2nc(C#CC(C)(C)O)nc(Oc3ccc(OC)cc3)n2)cc1", "no"],
  ["CCCCCC(=O)OCC(=O)[C@H]1[C@H](C)C[C@H]2[C@@H]3C[C@H](F)C4=C/C(=N/OC(=O)c5cccc6c(=O)c7ccccc7[nH]c56)C=C[C@]4(C)[C@H]3[C@@H](O)C[C@@]21C", "no"],
  ["CC(C)(C)OC(=O)NC(Cc1ccc(OCc2ccccc2)cn1)C(=O)O (configuration not stated)", "no"],
  ["Cn1c(=O)c2[nH]cnc2n(CC(N)=O)c1=O", "no"],
  ["COc1ccc(-c2cc(-c3ccccc3)c(C#N)c(=O)[nH]2)cc1", "no"],
  ["C/C(=N\\NC(=S)N1CCC(N2CCCCC2)CC1)c1ccccn1", "no"],
  ["CCOC(=O)c1sc2nc(SC)nc(Nc3ccc4c(c3)OCCCO4)c2c1N", "no"],
  ["COc1cc2c(NCCN(C)C)nc3c4cc5c(cc4ccc3c2cc1OC)OCO5", "yes"],
  ["Nc1c(C(=O)Nc2ccccc2)[n+]([O-])c2ccccc2[n+]1[O-]", "no"],
  ["N=c1oc2ccccc2cc1-c1nc2ccccc2c(=O)[nH]1", "no"],
  ["CN(C(=O)c1cc2c(s1)sc1c(=O)n(C)c3ccccc3c12)c1ccccc1", "no"],
  ["CCC/C(C)=N/NC(=S)SC.CCC/C(C)=N/NC(=S)SC.[Zn+2]", "no"],
  ["CSc1ncc2c(n1)-c1ccccc1OC2N1CCOCC1 (configuration not stated)", "no"],
  ["C=CCC1=C(C)C[C@@H]2CCC(=O)C=C12", "no"],
  ["COC1/C=C/OC2(C)Oc3c(C)c(O)c4c(c3C2=O)C(=O)C=C(NC(=O)/C(C)=C\\C=C\\C(C)C(OC=O)C(C)C(O)C(C)C(OC(C)=O)C1C)C4=O (configuration not stated)", "no"],
  ["CC1=Nc2sc3c(c2C2=NCCN12)CCCC3", "no"],
  ["C1CN2CCN3CCN4CCN1[PH]243", "no"],
  ["CCCC(=O)n1[nH]c(=O)n(-c2ccc(Cl)cc2)c1=O", "no"],
  ["Cn1c(=O)nc2n(-c3ccc(F)cc3)c3ccccc3nc-2c1=O", "no"],
  ["CN1CCC2(CC1)C(=O)N(N1CCCCCC1)C(=O)N2c1ccccc1", "no"]
]}

* * *

The reader will find reported GI50 values listed item by item below.
System: RPMI-8226
EXPERIMENT SUMMARY: NCI tumour cell line growth inhibition, 48 h
Active and inactive are the calls of the source. Rule as the data show it: active = GI50 up to about 1.1 µM and inactive = higher.

{"columns": ["COMPOUND", "GI50"],
 "data": [
  ["O=c1ccn2n1Cc1ccccc1C2", "> 100 µM (inactive)"],
  ["C=C1CCCC(C)(C)[C@@H]1CC/C(C)=C/Cn1c2cccc(=O)c-2nc2ccccc21", "2.04 µM (inactive)"],
  ["COc1ccc(CNC(C)C(=O)O)cc1 (stereo not drawn)", "> 100 µM (inactive)"],
  ["C/C(CC(=O)Nc1ccc([N+](=O)[O-])cc1)=N\\Nc1ccc([N+](=O)[O-])cc1[N+](=O)[O-]", "56.4 µM (inactive)"],
  ["CC(=O)NC1C(OCc2ccccc2)OC(CO)C(O)C1OCC(=O)N[C@@H](C)C(=O)N[C@H](CCC(=O)NCCCCNc1c2ccccc2nc2cccc([N+](=O)[O-])c12)C(N)=O (stereo partly drawn)", "1.64 µM (inactive)"],
  ["CCOC(=O)/C=C(\\N=P(c1ccccc1)(c1ccccc1)c1ccccc1)C(F)(F)C(F)(F)C(F)(F)C(F)(F)C(F)(F)F", "> 100 µM (inactive)"],
  ["CN(C)CCCSc1c2ccccc2nc2cc(NCC(=O)Nc3ccccc3-c3ccccc3NC(=O)CNc3ccc4c(SCCCN(C)C)c5ccccc5nc4c3)ccc12", "65 µM (inactive)"],
  ["CC(=O)N1CCN(C23OC4(N5CCN(C(C)=O)CC5)C5C6CC(C7C6C4C72)C53)CC1 (stereo not drawn)", "> 100 µM (inactive)"]
]}
